From: ChEMBL document CHEMBL3588766

assay: Cytotoxicity against human HepG2 cells assessed as cell proliferation at 10 uM after 48 hrs by WST-1 assay (Rvb =100%); format: cell-based; details: read-out: Activity
RECORDED METRIC: viability at 48 h, 10 µM (%)
Numbers only here, please. The scale is %.

input: Look up and state reported viability at 48 h, 10 µM for `Cc1ccccc1-c1noc(-c2cccc(C(=O)O)c2)n1`
output: 87
